# target-or-test-system: human TLR7 (Homo sapiens (Human), UniProt Q9NYK1)
# Sequence (Q9NYK1 27-1049): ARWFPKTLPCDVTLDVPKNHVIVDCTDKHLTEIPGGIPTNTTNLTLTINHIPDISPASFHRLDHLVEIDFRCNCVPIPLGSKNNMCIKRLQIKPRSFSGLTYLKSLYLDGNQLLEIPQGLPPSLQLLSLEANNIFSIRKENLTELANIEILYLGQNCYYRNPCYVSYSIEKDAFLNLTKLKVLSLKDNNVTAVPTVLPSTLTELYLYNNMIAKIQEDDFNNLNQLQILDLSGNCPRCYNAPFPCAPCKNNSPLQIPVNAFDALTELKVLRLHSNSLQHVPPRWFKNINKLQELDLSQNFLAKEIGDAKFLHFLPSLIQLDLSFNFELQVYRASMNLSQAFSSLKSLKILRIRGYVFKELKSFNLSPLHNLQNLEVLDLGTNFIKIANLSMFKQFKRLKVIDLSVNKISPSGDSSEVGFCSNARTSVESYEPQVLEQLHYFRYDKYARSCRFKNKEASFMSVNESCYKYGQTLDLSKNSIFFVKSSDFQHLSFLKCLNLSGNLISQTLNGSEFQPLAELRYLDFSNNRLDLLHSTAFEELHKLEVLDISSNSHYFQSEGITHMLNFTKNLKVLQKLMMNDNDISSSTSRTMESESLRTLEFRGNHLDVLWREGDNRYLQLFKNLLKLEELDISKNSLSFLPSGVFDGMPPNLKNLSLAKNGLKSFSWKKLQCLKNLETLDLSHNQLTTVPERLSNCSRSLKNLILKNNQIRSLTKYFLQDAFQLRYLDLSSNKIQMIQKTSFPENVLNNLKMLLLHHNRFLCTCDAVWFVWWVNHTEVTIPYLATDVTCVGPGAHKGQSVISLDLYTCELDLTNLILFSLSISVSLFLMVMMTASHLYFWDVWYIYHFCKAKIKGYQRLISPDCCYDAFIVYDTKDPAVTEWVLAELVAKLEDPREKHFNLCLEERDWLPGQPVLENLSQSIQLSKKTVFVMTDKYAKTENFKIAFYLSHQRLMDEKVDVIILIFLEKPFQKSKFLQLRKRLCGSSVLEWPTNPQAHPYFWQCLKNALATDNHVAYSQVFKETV
# procedure-text: TLR7 inhibition reporter assay (HEK-Blue cells, SEAP reporter, gardiquimod stimulation)
# Format: cell-based
# particulars: HEK-Blue cells overexpressing human TLR7, gardiquimod 7.5 μM
metric: pIC50
Schema: pIC50 number; meaning minus log10 of the concentration expressed in molar units.

Example entries and their recorded answers appear below.
Cc1cc(-c2[nH]c3ccc(C4CCNCC4)cc3c2C(C)C(F)(F)F)cc(C)n1 (stereo not shown) [Example 92] | 9.22
CCc1c(-c2ccnc(OC)c2)[nH]c2ccc(C3CCN(C4CCN(CC5CC5)CC4)CC3)cc12 [Example 789] | 6.22
Cc1cc(-c2[nH]c3ccc(C4CCN(C(=O)c5ccon5)CC4)cc3c2C(C)C)ccn1 [Example 604] | 7.60

Consider the additional compound presented here.
Query COc1cc(-c2[nH]c3ccc(C4CCN(C5CCN(CC(C)C)CC5)CC4)cc3c2C(C)C)ccn1 [Example 803] yields pIC50 of 7.10

----------
# target-or-test-system: human TLR9 (Homo sapiens (Human))
# procedure-text: TLR9 inhibition reporter assay (HEK-Blue cells, SEAP reporter, ODN2006 stimulation)
# particulars: read-out: TLR9 IC50, HEK-Blue cells overexpressing human TLR9, ODN2006 5 nM
metric: IC50 (nM)
Write the number in nM without appending the unit.

Example entries and their recorded answers appear below.
Cc1cc(-c2[nH]c3ccc(C4CCN(C5CCCNC5)CC4)cc3c2C(C)C)ccn1 (stereo not drawn) [Example 703] | 526
CCN1CCC(c2ccc3[nH]c(-c4cc(C)nc(C)c4)c(C(C)C)c3c2)CC1 [Example 322] | 401

Consider the additional molecule presented here.
Query Cc1cc(-c2[nH]c3ccc(C4CCNCC4)cc3c2C(C)C)cc(N2CCN(C)CC2)n1 [Example 480] yields IC50 of 707

----------
# target-or-test-system: UniProt:Q9NR97
# Sequence (Q9NR97 27-1041): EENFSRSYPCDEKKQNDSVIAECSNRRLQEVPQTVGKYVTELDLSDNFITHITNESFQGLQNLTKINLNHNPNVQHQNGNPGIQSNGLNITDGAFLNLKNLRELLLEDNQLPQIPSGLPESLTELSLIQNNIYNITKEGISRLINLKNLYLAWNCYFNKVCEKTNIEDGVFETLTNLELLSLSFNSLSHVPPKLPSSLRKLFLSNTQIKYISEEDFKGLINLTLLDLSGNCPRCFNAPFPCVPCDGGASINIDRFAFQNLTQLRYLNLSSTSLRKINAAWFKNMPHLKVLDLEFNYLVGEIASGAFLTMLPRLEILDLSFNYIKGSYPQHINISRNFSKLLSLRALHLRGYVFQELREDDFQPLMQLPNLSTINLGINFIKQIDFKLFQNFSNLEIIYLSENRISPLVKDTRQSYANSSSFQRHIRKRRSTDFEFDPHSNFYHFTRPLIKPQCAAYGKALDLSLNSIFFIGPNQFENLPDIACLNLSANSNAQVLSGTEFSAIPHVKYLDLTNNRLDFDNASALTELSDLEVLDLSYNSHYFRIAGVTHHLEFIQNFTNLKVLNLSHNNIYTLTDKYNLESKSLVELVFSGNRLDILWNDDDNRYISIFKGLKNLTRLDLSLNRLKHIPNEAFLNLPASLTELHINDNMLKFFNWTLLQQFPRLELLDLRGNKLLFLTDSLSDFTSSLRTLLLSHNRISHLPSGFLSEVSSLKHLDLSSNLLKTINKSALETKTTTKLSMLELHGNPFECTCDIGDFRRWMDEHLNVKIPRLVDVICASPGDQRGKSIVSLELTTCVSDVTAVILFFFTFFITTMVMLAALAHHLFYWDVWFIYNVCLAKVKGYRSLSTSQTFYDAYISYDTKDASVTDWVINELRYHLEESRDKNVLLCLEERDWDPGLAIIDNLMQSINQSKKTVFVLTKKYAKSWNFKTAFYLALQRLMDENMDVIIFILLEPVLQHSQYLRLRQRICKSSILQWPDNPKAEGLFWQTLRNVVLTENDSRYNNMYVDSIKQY
# procedure-text: TLR8 inhibition reporter assay (HEK-Blue cells, SEAP reporter, R848 stimulation);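 also: compounds tested from 0.05 nM to 50 µM, 22 h at 37 °C, SEAP measured with HEK-Blue Detection, inhibition relative to agonist plus DMSO versus a known inhibitor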
# particulars: read-out: TLR8 IC50, HEK-Blue cells overexpressing human TLR8, R848 15.9 μM
pIC50: −log10 of the molar value.
Use 1 when the recorded pIC50 is no lower than 8; use 0 when it is lower.

Reference set (4 entries):
CC(C)c1c(-c2ccnc(F)c2)[nH]c2ccc(C3CCN(C4CCN(C)CC4)CC3)cc12 [Example 523] | 0
Cc1cc(-c2[nH]c3ccc(C4CCNCC4)cc3c2C(C)(C)C)cc(C)n1 [Example 96] | 0
Cc1cc(-c2[nH]c3ccc(C4CCN(C5CCOCC5)CC4)cc3c2C(C)C)c(C)cn1 [Example 714] | 1
Cc1cc(-c2[nH]c3ccc(C4CCN(C(=O)C5CCNCC5)CC4)cc3c2C(C)C)ccn1 [Example 573] | 0

[Q] Could you verify whether the entry CCc1c(-c2ccnc(N)c2)[nH]c2ccc(C3CCNCC3)cc12 [Example 69] shows pIC50 of no less than 8?
[A] 0

----------
# target-or-test-system: human TLR9 (Homo sapiens (Human), UniProt Q9NR96)
# Sequence (Q9NR96 26-1032): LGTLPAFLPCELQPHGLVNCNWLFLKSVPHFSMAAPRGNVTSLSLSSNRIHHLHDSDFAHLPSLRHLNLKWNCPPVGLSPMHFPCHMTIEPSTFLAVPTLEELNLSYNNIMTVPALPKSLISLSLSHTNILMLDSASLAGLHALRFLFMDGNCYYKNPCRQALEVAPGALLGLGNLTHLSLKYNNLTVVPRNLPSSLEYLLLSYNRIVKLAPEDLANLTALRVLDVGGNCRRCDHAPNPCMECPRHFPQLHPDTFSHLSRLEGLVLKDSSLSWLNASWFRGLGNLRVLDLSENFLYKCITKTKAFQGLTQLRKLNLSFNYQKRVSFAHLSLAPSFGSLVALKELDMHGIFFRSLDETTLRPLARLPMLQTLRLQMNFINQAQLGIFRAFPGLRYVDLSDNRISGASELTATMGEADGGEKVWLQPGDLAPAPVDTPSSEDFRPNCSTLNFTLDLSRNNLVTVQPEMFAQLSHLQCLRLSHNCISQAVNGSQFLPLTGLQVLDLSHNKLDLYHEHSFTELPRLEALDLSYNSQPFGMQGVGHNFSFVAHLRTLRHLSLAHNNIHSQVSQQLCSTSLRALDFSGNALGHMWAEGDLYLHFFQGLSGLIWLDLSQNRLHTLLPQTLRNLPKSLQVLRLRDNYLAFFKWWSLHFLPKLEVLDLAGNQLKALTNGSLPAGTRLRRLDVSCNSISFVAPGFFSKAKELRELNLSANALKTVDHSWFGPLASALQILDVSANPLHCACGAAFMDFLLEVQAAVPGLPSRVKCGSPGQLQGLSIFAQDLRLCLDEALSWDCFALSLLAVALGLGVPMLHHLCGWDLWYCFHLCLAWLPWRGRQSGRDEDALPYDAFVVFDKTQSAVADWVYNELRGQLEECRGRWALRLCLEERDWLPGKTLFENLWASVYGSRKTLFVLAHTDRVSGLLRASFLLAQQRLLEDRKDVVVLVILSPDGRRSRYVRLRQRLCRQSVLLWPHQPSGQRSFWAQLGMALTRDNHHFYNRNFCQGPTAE
# procedure-text: TLR9 inhibition reporter assay (HEK-Blue cells, SEAP reporter, ODN2006 stimulation)
# particulars: read-out: TLR9 IC50, HEK-Blue cells overexpressing human TLR9, ODN2006 5 nM
metric: log10 IC50 (log10 of the value in nM)
Recorded IC50 (log10, nM)

Example entries and their recorded answers appear below.
Cc1cc(-c2[nH]c3ccc(C4CCN(S(=O)(=O)C(C)C)CC4)cc3c2C(C)C)ccn1 | 4.09
Cc1cc(-c2[nH]c3ccc(C4CCN(C(=O)CN(C)CC(F)F)CC4)cc3c2C(C)C)cc(C)n1 | 4.62
Cc1cc(-c2[nH]c3ccc(C4CCN(C5CCS(=O)(=O)CC5)CC4)cc3c2C(C)C)cc(C)n1 | 3.09
Cc1cc(-c2[nH]c3ccc(C4CCN(C(=O)CCN(C)C)CC4)cc3c2C(C)C)ccn1 | 2.86

Query `Cc1cc(-c2[nH]c3ccc(C4CCNCC4)cc3c2C(C)(C)C)cc(C)n1` yields log10 IC50 of 3.12

Query `COc1cc(-c2[nH]c3ccc(C4CCN(C5CCN(CC(C)C)CC5)CC4)cc3c2C(C)C)ccn1` yields log10 IC50 of 2.99

Query `Cc1cc(-c2[nH]c3ccc(C4CCN(CC(=O)NC5(C)CCOCC5)CC4)cc3c2C(C)C)cc(C)n1` yields log10 IC50 of 2.54

Query `COCCN1CCC(c2ccc3[nH]c(-c4cc(C)nc(C)c4)c(C(C)C)c3c2)CC1` yields log10 IC50 of 2.54

Query `Cc1cc(-c2[nH]c3ccc(C4CCNCC4)cc3c2C(C)C)c(F)c(C)n1` yields log10 IC50 of 2.89

Query `Cc1cc(-c2[nH]c3ccc(C4CCN(CC5CCCC5)CC4)cc3c2C(C)C)cc(C)n1` yields log10 IC50 of 3.13

Query `Cc1cc(-c2[nH]c3ccc(C4CCN(C(=O)CN5CCC(F)CC5)CC4)cc3c2C(C)C)cc(C)n1` yields log10 IC50 of 2.92

Query `Cc1cc(-c2[nH]c3ccc(C4CCN(CC(=O)NC(C)C)CC4)cc3c2C(C)C)cc(C)n1` yields log10 IC50 of 2.98

Query `Cc1cc(-c2[nH]c3ccc(C4CCN(CC(=O)N(C)C5CCCCC5)CC4)cc3c2C(C)C)cc(C)n1` yields log10 IC50 of 2.46

Query Cc1cc(-c2[nH]c3ccc(C4CCN(CC(=O)NCC(C)O)CC4)cc3c2C(C)C)cc(C)n1 (stereo not shown) yields log10 IC50 of 2.58

Query Cc1cc(-c2[nH]c3ccc(C4CCN(C5CCCNC5O)CC4)cc3c2C(C)C)ccn1 (stereo not shown) yields log10 IC50 of 2.64

Query `CCc1c(-c2ccnc(OC)c2)[nH]c2ccc(C3CCN(C4CCN(CC5CC5)CC4)CC3)cc12` yields log10 IC50 of 2.61

----------
Measured log10 of IC50 accompanies every entry in the list below.
# target-or-test-system: human TLR9 (Homo sapiens (Human), UniProt Q9NR96)
# procedure-text: TLR9 inhibition reporter assay (HEK-Blue cells, SEAP reporter, ODN2006 stimulation);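 also: compounds tested over 0.05 nM to 50 µM, 22 h incubation, inhibition taken as SEAP signal drop from agonist plus DMSO wells toward a known inhibitor control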
# particulars: read-out: TLR9 IC50, HEK-Blue cells overexpressing human TLR9, ODN2006 5 nM
Recorded IC50 (log10, nM)

Cc1cc(-c2[nH]c3ccc(C4CCNCC4)c(F)c3c2C(C)C)cc(C)n1 [Example 77] | 2.54
Cc1cc(-c2[nH]c3ccc(C4CCN(CC(=O)NCC(C)C)CC4)cc3c2C(C)C)cc(C)n1 [Example 221] | 3.30
Cc1cc(-c2[nH]c3ccc(C4CCN(CC(=O)N5CCC(C)CC5)CC4)cc3c2C(C)C)cc(C)n1 [Example 269] | 2.36
Cc1cc(-c2[nH]c3ccc(C4CCN(CC(=O)N5CCCC5)CC4)cc3c2C(C)C)cc(C)n1 [Example 242] | 3.01
COc1cc(-c2[nH]c3ccc(C4CCN(C5CCN(C6CCCC6)CC5)CC4)cc3c2C(C)C)ccn1 [Example 802] | 2.69
Cc1cc(-c2[nH]c3ccc(C4CCN(C(=O)CN(C)C5COC5)CC4)cc3c2C(C)C)cc(C)n1 [Example 416] | 3.68

Query Cc1cc(-c2[nH]c3ccc(C4CCN(CC(=O)N5CCCC(F)C5)CC4)cc3c2C(C)C)cc(C)n1 (stereo not shown) [Example 258] yields log10 of IC50 of 2.96

Query Cc1cc(-c2[nH]c3ccc(C4CCN(Cc5cc(C)on5)CC4)cc3c2C(C)C)cc(C)n1 [Example 443] yields log10 of IC50 of 3.23

Query Cc1cc(-c2[nH]c3ccc(C4CCN(C(=O)CN5CCCC(F)C5)CC4)cc3c2C(C)C)cc(C)n1 (stereo not shown) [Example 363] yields log10 of IC50 of 3.26

Query CNCCN1CCC(c2ccc3[nH]c(-c4ccncc4OC)c(C)c3c2)CC1 [Example 754] yields log10 of IC50 of 2.51

Query CNC(=O)C(=O)N1CCC(c2ccc3[nH]c(-c4cc(C)nc(C)c4)c(C(C)C)c3c2)CC1 [Example 205] yields log10 of IC50 of 4.28

----------
Measured log10 of IC50 accompanies every entry in the list below.
# target-or-test-system: human TLR9 (Homo sapiens (Human))
# procedure-text: TLR9 inhibition reporter assay (HEK-Blue cells, SEAP reporter, ODN2006 stimulation)
# particulars: read-out: TLR9 IC50, HEK-Blue cells overexpressing human TLR9, ODN2006 5 nM
Recorded IC50 (log10, µM)

Example entries and their recorded answers appear below.
CCc1c(-c2ccncc2)[nH]c2ccc(C3CCN(C4CCN(C)CC4)CC3)cc12 | -0.44
Cc1cc(-c2[nH]c3ccc(C4CCN(C(=O)CN(C)C5CCCCC5)CC4)cc3c2C(C)C)cc(C)n1 | -0.20
Cc1cc(-c2[nH]c3ccc(C4CCN(C(=O)CCCN(C)C)CC4)cc3c2C(C)C)cc(C)n1 | 1.11
COc1cc(-c2[nH]c3ccc(C4CCN(CC(F)(F)F)CC4)cc3c2C(C)C)ccn1 | 1.29

Query `CCc1cc(-c2[nH]c3ccc(C4CCNCC4)cc3c2C(C)C)cc(OC)n1` yields log10 of IC50 of 0.33

Query `Cc1cc(-c2[nH]c3ccc(C4CCN(S(=O)(=O)c5cn(C)c(C)n5)CC4)cc3c2C(C)C)ccn1` yields log10 of IC50 of 1.50

Query `CCc1c(-c2ccnc(C)c2)[nH]c2ccc(C3CCN(C(=O)C4CC5(CCNCC5)C4)CC3)cc12` yields log10 of IC50 of -0.36
